- Tested On: Recombinant human TLR7 (Homo sapiens, UniProt Q9NYK1)
- Construct: TLR7 in vector pUNO, blasticidin selection
- Sequence (Q9NYK1 27-1049): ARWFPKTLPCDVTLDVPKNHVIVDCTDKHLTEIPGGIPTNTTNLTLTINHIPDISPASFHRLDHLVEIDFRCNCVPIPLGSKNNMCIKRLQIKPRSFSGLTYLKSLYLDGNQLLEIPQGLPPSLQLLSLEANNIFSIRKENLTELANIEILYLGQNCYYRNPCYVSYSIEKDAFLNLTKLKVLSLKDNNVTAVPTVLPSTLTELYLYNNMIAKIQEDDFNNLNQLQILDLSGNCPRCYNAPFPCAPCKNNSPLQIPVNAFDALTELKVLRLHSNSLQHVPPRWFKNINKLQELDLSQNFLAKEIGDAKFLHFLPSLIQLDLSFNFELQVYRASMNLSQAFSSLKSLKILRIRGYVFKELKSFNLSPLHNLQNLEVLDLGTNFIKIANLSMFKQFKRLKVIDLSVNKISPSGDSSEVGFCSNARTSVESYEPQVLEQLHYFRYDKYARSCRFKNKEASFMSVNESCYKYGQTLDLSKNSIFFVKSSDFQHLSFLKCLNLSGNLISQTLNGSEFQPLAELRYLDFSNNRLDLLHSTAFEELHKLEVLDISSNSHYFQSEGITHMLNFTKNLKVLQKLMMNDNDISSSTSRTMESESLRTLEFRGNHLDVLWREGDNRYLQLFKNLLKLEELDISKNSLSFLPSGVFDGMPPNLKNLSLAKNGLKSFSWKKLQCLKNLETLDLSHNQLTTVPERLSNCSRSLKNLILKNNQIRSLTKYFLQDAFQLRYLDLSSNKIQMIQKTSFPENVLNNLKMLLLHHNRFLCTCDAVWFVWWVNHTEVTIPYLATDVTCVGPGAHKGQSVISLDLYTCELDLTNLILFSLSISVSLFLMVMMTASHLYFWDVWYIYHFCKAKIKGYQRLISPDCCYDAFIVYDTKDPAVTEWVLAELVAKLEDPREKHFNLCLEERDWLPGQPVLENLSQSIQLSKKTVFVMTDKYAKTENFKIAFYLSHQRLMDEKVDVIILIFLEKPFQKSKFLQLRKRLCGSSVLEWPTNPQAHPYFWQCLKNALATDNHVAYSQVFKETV
- Protocol Notes: Human TLR7 Assay (SEAP reporter);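 note: SEAP driven by an NFkB-responsive composite promoter, pEC50 read at half of each compound's own maximal SEAP induction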
- Experimental Parameters: HEK293 cell line stably expressing human TLR7 and pNiFty2-SEAP reporter; SEAP induction after overnight incubation at 37° C., 0.1% (v/v) DMSO
Metric Name: EC50 (nM)
Answer in nM, number only, no unit symbol.

[[record]]
molecule = "CCCCCNc1nc(N)nc(C)c1Cc1ccc(CC(=O)OCCCCN2CCCC2)cc1 [Example 61]"
tested_on = "Recombinant human TLR7 (Homo sapiens, UniProt Q9NYK1)"
metric_name = "EC50"
measured = 126


Noted for CCC[C@@H](CO)Nc1nc(N)nc(C)c1Cc1ccc(CC(=O)OCC2CCN(C)CC2)cc1O [Example 76] : its EC50 reads 631

Summary for this molecule, CCCCNc1nc(N)nc(C)c1Cc1ccc(CC(=O)OCCc2scnc2C)cc1OC [Example 101] : EC50 is 39.8

Data point: CCCCNc1nc(N)nc(C)c1Cc1ccc(CC(=O)OCCCCN2CCCC2)cc1OC [Example 73] ; EC50 = 5.01

The molecule CCCCCNc1nc(N)nc(C)c1CCCNCc1cccc(OCC(=O)OC)c1 [Example 25] showed EC50 equal to 794

Just so you know, measured EC50 for CCC[C@@H](CCO)Nc1nc(N)nc(C)c1Cc1ccc(CC(=O)OC)cc1 [Example 49] came out at 200

EC50 reported for this molecule CCCCCNc1nc(N)nc(C)c1CCCN(Cc1ccc(CC(=O)OC)cc1)C(=O)CN(C)CCOC [Example 15] : 398

GET /value?item= CCCCCNc1nc(N)nc(C)c1CCCN(Cc1cccc(CC(=O)OC)c1)C(=O)CN1CCCN(C(C)=O)CC1 [Example 8] &field=EC50 returns 2510

EC50 reported for this molecule CCCCCNc1nc(N)nc(C)c1Cc1ccc(CC(=O)OCC(C)(C)CN(C)C)cc1 [Example 55] : 126

Memo: CCCCCNc1nc(N)nc(C)c1Cc1cccc(CC(=O)OCCCCN2CCCC2)c1 [Example 84] , reported EC50: 316

In plain terms, CCC[C@@H](CO)Nc1nc(N)nc(C)c1Cc1ccc(CC(=O)OC)cc1 [Example 43] has a documented EC50 of 794

Consider CCCCCNc1nc(N)nc(C)c1CCCNC(=O)Cc1cccc(CC(=O)OC)c1 [Example 24] . Its measured EC50 is 1000

EC50 for CCCCNc1nc(N)nc(C)c1Cc1ccc(CC(=O)OCCCCN2CCCC2)cc1O [Example 79] is 126

GET /value?item= CCC[C@@H](CCO)Nc1nc(N)nc(C)c1Cc1ccc(CC(=O)OC)cc1OC [Example 48] &field=EC50 returns 2

molecule CCCCCNc1nc(N)nc(C)c1CCCNCc1cccc(CC(=O)OC)c1 [Example 1] , EC50 observed: 501

Recorded EC50 (molecule CCC[C@@H](CCO)Nc1nc(N)nc(C)c1Cc1ccc(CC(=O)OCCCCN(C)C)cc1 [Example 94] ): 126

Briefly, EC50 measured for CCCCCNc1nc(N)nc(C)c1CCCN(Cc1cccc(CC(=O)OC)c1)C(=O)CN(C)CCO [Example 10] : 1580

EC50 reported for this molecule CCCCNc1nc(N)nc(C)c1Cc1ccc(CC(=O)OCCCCN2CCCC2)cc1 [Example 82] : 100

// field: EC50; key: CCCCCNc1nc(N)nc(C)c1Cc1ccc(CC(=O)OCCCCN(C)C)cc1 [Example 57] ; value = 126

GET /value?item= CCCCNc1nc(N)nc(C)c1Cc1ccc(CC(=O)OCC2CCN(C)CC2)cc1 [Example 69] &field=EC50 returns 126

Sure, the documented EC50 for CCC[C@@H](CCO)Nc1nc(N)nc(C)c1Cc1ccc(CC(=O)OCCCCN2CCCC2)cc1O [Example 78] is 50.1

Recorded EC50 (molecule CCCCNc1nc(N)nc(C)c1Cc1cc(CC(=O)OCC2CCN(C)CC2)ccc1OC [Example 83] ): 20

In plain terms, CCC[C@@H](CCO)Nc1nc(N)nc(C)c1Cc1ccc(CC(=O)OCC2CCN(C)CC2)cc1F [Example 74] has a documented EC50 of 39.8

// EC50 lookup, molecule = CCC[C@@H](CCO)Nc1nc(N)nc(C)c1Cc1ccc(CC(=O)OCCC2CCN(C)CC2)cc1F [Example 100] , result: 31.6

Data point: CCCCNc1nc(N)nc(C)c1Cc1cc(CC(=O)OC)ccc1OC [Example 98] ; EC50 = 50.1

EC50 reading for CCC[C@@H](CO)Nc1nc(N)nc(C)c1Cc1ccc(CC(=O)OC)cc1O [Example 88] : 100

Data credit: patent US8268990B2
